assay details: Stability under influencing factors (high temperature, high humidity, open, 30 days)
experimental setup: 92.5% RH, 30 days
Catalogue of Purity % values
Number in %, nothing else.

molecule	Purity % / %
CC(C)(C#Cc1nc(C(Cc2cc(F)cc(F)c2)NC(=O)Cn2nc(C(F)(F)F)c3c2C(F)(F)C2CC32)c(-c2ccc(Cl)c3c([N-]S(C)(=O)=O)nn(CC(F)(F)F)c23)c2c1CCC2)S(C)(=O)=O.[Na+] (stereo not shown) [Crystal form III of the sodium salt]	97.89
CC(C)(C#Cc1nc(C(Cc2cc(F)cc(F)c2)NC(=O)Cn2nc(C(F)(F)F)c3c2C(F)(F)C2CC32)c(-c2ccc(Cl)c3c([N-]S(C)(=O)=O)nn(CC(F)(F)F)c23)c2c1CCC2)S(C)(=O)=O.C[N+](C)(C)CCO (stereo not shown) [Crystal form B of the choline salt]	98.35
CC(C)(C#Cc1nc(C(Cc2cc(F)cc(F)c2)NC(=O)Cn2nc(C(F)(F)F)c3c2C(F)(F)C2CC32)c(-c2ccc(Cl)c3c([N-]S(C)(=O)=O)nn(CC(F)(F)F)c23)c2c1CCC2)S(C)(=O)=O.[K+] (stereo not shown) [Crystal form a of the potassium salt]	98.02

q: Purity % lookup needed for CC(C)(C#Cc1nc(C(Cc2cc(F)cc(F)c2)NC(=O)Cn2nc(C(F)(F)F)c3c2C(F)(F)C2CC32)c(-c2ccc(Cl)c3c(NS(C)(=O)=O)nn(CC(F)(F)F)c23)c2c1CCC2)S(C)(=O)=O.O=S(=O)(O)O (stereo not shown) [Crystal form A of hydrosulfate] , thanks.
a: 99.07

----------
assay details: Stability under influencing factors (high temperature, high humidity, open, 30 days)
experimental setup: 92.5% RH, 10 days
experimental readout: Purity % (%)
Number in %, nothing else.

compound	Purity % [%]
CC(C)(C#Cc1nc(C(Cc2cc(F)cc(F)c2)NC(=O)Cn2nc(C(F)(F)F)c3c2C(F)(F)C2CC32)c(-c2ccc(Cl)c3c([N-]S(C)(=O)=O)nn(CC(F)(F)F)c23)c2c1CCC2)S(C)(=O)=O.[Na+] (stereo not shown) [Crystal form III of the sodium salt]	97.94
CC(C)(C#Cc1nc(C(Cc2cc(F)cc(F)c2)NC(=O)Cn2nc(C(F)(F)F)c3c2C(F)(F)C2CC32)c(-c2ccc(Cl)c3c([N-]S(C)(=O)=O)nn(CC(F)(F)F)c23)c2c1CCC2)S(C)(=O)=O.C[N+](C)(C)CCO (stereo not shown) [Crystal form B of the choline salt]	98.34

q: Purity % lookup needed for CC(C)(C#Cc1nc(C(Cc2cc(F)cc(F)c2)NC(=O)Cn2nc(C(F)(F)F)c3c2C(F)(F)C2CC32)c(-c2ccc(Cl)c3c(NS(C)(=O)=O)nn(CC(F)(F)F)c23)c2c1CCC2)S(C)(=O)=O.O=S(=O)(O)O (stereo not shown) [Crystal form A of hydrosulfate] , thanks.
a: 99.02

q: Purity % lookup needed for CC(C)(C#Cc1nc(C(Cc2cc(F)cc(F)c2)NC(=O)Cn2nc(C(F)(F)F)c3c2C(F)(F)C2CC32)c(-c2ccc(Cl)c3c([N-]S(C)(=O)=O)nn(CC(F)(F)F)c23)c2c1CCC2)S(C)(=O)=O.[K+] (stereo not shown) [Crystal form a of the potassium salt] , thanks.
a: 98.04

----------
assay details: Stability under influencing factors (high temperature, high humidity, open, 30 days)
experimental setup: 60° C., 5 days
Catalogue of Purity % values
# do not omit the unit; it follows the number

# example entries with known answers
compound	Purity %
CC(C)(C#Cc1nc(C(Cc2cc(F)cc(F)c2)NC(=O)Cn2nc(C(F)(F)F)c3c2C(F)(F)C2CC32)c(-c2ccc(Cl)c3c([N-]S(C)(=O)=O)nn(CC(F)(F)F)c23)c2c1CCC2)S(C)(=O)=O.[K+] (stereo not shown) [Crystal form a of the potassium salt]	98.01%
CC(C)(C#Cc1nc(C(Cc2cc(F)cc(F)c2)NC(=O)Cn2nc(C(F)(F)F)c3c2C(F)(F)C2CC32)c(-c2ccc(Cl)c3c(NS(C)(=O)=O)nn(CC(F)(F)F)c23)c2c1CCC2)S(C)(=O)=O.O=S(=O)(O)O (stereo not shown) [Crystal form A of hydrosulfate]	96.46%
CC(C)(C#Cc1nc(C(Cc2cc(F)cc(F)c2)NC(=O)Cn2nc(C(F)(F)F)c3c2C(F)(F)C2CC32)c(-c2ccc(Cl)c3c([N-]S(C)(=O)=O)nn(CC(F)(F)F)c23)c2c1CCC2)S(C)(=O)=O.[Na+] (stereo not shown) [Crystal form III of the sodium salt]	98.05%

q: Purity % lookup needed for CC(C)(C#Cc1nc(C(Cc2cc(F)cc(F)c2)NC(=O)Cn2nc(C(F)(F)F)c3c2C(F)(F)C2CC32)c(-c2ccc(Cl)c3c([N-]S(C)(=O)=O)nn(CC(F)(F)F)c23)c2c1CCC2)S(C)(=O)=O.C[N+](C)(C)CCO (stereo not shown) [Crystal form B of the choline salt] , thanks.
a: 98.39%

----------
assay details: Stability under influencing factors (high temperature, high humidity, open, 30 days)
experimental setup: 75% RH, 10 days
experimental readout: Purity % (%)
Number in %, nothing else.

compound	Purity %, %
CC(C)(C#Cc1nc(C(Cc2cc(F)cc(F)c2)NC(=O)Cn2nc(C(F)(F)F)c3c2C(F)(F)C2CC32)c(-c2ccc(Cl)c3c([N-]S(C)(=O)=O)nn(CC(F)(F)F)c23)c2c1CCC2)S(C)(=O)=O.[K+] (stereo not shown) [Crystal form a of the potassium salt]	98.04
CC(C)(C#Cc1nc(C(Cc2cc(F)cc(F)c2)NC(=O)Cn2nc(C(F)(F)F)c3c2C(F)(F)C2CC32)c(-c2ccc(Cl)c3c(NS(C)(=O)=O)nn(CC(F)(F)F)c23)c2c1CCC2)S(C)(=O)=O.O=S(=O)(O)O (stereo not shown) [Crystal form A of hydrosulfate]	99.11
CC(C)(C#Cc1nc(C(Cc2cc(F)cc(F)c2)NC(=O)Cn2nc(C(F)(F)F)c3c2C(F)(F)C2CC32)c(-c2ccc(Cl)c3c([N-]S(C)(=O)=O)nn(CC(F)(F)F)c23)c2c1CCC2)S(C)(=O)=O.[Na+] (stereo not shown) [Crystal form III of the sodium salt]	98.10

Let us examine a further case.
q: Purity % lookup needed for CC(C)(C#Cc1nc(C(Cc2cc(F)cc(F)c2)NC(=O)Cn2nc(C(F)(F)F)c3c2C(F)(F)C2CC32)c(-c2ccc(Cl)c3c([N-]S(C)(=O)=O)nn(CC(F)(F)F)c23)c2c1CCC2)S(C)(=O)=O.C[N+](C)(C)CCO (stereo not shown) [Crystal form B of the choline salt] , thanks.
a: 98.35

----------
assay details: Hygroscopicity of salt crystal forms (DVS, 25° C.)
Assay type: physicochemical
experimental setup: DVS, 25° C., 20.0% RH-80.0% RH
Catalogue of Hygroscopicity 20.0% RH-80.0% RH values
Number in %, nothing else.

# example entries with known answers
molecule	units of measure	Hygroscopicity 20.0% RH-80.0% RH
CC(C)(C#Cc1nc(C(Cc2cc(F)cc(F)c2)NC(=O)Cn2nc(C(F)(F)F)c3c2C(F)(F)C2CC32)c(-c2ccc(Cl)c3c(NS(C)(=O)=O)nn(CC(F)(F)F)c23)c2c1CCC2)S(C)(=O)=O.O=S(=O)(O)O (stereo not drawn) [Crystal form A of hydrosulfate]	%	1.59
CC(C)(C#Cc1nc(C(Cc2cc(F)cc(F)c2)NC(=O)Cn2nc(C(F)(F)F)c3c2C(F)(F)C2CC32)c(-c2ccc(Cl)c3c([N-]S(C)(=O)=O)nn(CC(F)(F)F)c23)c2c1CCC2)S(C)(=O)=O.[Na+] (stereo not drawn) [Crystal form II of the sodium salt]	%	11.61
CC(C)(C#Cc1nc(C(Cc2cc(F)cc(F)c2)NC(=O)Cn2nc(C(F)(F)F)c3c2C(F)(F)C2CC32)c(-c2ccc(Cl)c3c([N-]S(C)(=O)=O)nn(CC(F)(F)F)c23)c2c1CCC2)S(C)(=O)=O.[Na+] (stereo not drawn) [Crystal form III of the sodium salt]	%	0.73
CC(C)(C#Cc1nc(C(Cc2cc(F)cc(F)c2)NC(=O)Cn2nc(C(F)(F)F)c3c2C(F)(F)C2CC32)c(-c2ccc(Cl)c3c([N-]S(C)(=O)=O)nn(CC(F)(F)F)c23)c2c1CCC2)S(C)(=O)=O.C[N+](C)(C)CCO (stereo not drawn) [Crystal form B of the choline salt]	%	5.96
CC(C)(C#Cc1nc(C(Cc2cc(F)cc(F)c2)NC(=O)Cn2nc(C(F)(F)F)c3c2C(F)(F)C2CC32)c(-c2ccc(Cl)c3c([N-]S(C)(=O)=O)nn(CC(F)(F)F)c23)c2c1CCC2)S(C)(=O)=O.[Na+] (stereo not drawn) [Crystal form IV of the sodium salt]	%	0.45

Let us examine a further case.
q: Hygroscopicity 20.0% RH-80.0% RH lookup needed for CC(C)(C#Cc1nc(C(Cc2cc(F)cc(F)c2)NC(=O)Cn2nc(C(F)(F)F)c3c2C(F)(F)C2CC32)c(-c2ccc(Cl)c3c([N-]S(C)(=O)=O)nn(CC(F)(F)F)c23)c2c1CCC2)S(C)(=O)=O.[K+] (stereo not drawn) [Crystal form a of the potassium salt] , thanks.
a: 2.86
